- Study System: HCV polymerase (NS5B) type 1b (Hepatitis C virus genotype 1b, UniProt P26663)
- Construct: a region encoding NS5B (J Virol 1991 March, 65(3), 1105-13, 544 amino acids after deletion of 47 amino acids on the C-terminal); 6xHis (C); made in house; host or cells: Escherichia coli
- Sequence (P26663 2420-2963): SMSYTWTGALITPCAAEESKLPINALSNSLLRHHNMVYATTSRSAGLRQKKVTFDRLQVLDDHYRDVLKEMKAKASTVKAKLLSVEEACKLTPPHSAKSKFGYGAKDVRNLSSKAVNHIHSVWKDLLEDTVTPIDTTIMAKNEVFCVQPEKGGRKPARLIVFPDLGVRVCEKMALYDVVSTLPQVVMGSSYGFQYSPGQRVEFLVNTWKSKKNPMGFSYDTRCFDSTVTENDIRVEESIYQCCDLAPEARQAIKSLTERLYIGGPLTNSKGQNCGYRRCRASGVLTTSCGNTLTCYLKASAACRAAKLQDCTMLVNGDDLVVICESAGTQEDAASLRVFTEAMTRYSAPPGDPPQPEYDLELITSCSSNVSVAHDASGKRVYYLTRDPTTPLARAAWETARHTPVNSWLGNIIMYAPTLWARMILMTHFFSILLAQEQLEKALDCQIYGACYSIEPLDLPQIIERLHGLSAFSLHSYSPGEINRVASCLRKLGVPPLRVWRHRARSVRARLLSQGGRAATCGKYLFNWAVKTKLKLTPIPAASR
- Measurement Notes: Assay of enzyme (HCV polymerase) inhibitory activity, type 1b enzyme
- Assay type: biochemical, HCV BK strain (type 1b)
- Measurement Conditions: HCV polymerase inhibitory activity IC50, 1b, type 1b enzyme
pIC50: −log10 of the molar value.
Reported Property: pIC50

                                   compound  observed
0  O=C(NCc1ccc(OC(F)(F)F)cc1)[C@H]1CN(c2nc3cnncc3s2)CCN1S(=O)(=O)c1ccc(C(F)(F)F)cc1 [Example 897]    > 7.00
1  O=C(NCc1ccc(OC(F)(F)F)cc1)[C@H]1CN(c2nc3cn[nH]c(=O)c3s2)CCN1S(=O)(=O)c1ccc([N+](=O)[O-])cc1 [Example 835]    > 7.00

Prompt line: // pIC50 lookup, key: O=C(NCCCc1ccccc1)[C@H]1CN(c2cnc3cncnc3n2)CCN1S(=O)(=O)c1ccc(OC(F)(F)F)cc1 [Example 811]
Response line: 6.00 to 7.00

Prompt line: Please answer likewise for CCC(F)(F)c1ccc(CNC(=O)[C@H]2CN(c3nc4nc(Cl)ncc4s3)CCN2S(=O)(=O)c2ccc(C(F)(F)F)cc2)cc1 [Example 902]
Response line: > 7.00

Prompt line: And CCCn1cc(CNC(=O)[C@H]2CN(C(C)=O)CCN2S(=O)(=O)c2ccc(OC(F)(F)F)cc2)cn1 [Example 703] ?
Response line: < 6.00

Prompt line: What about this compound? CC(=O)N1CCN(S(=O)(=O)c2ccc(OC(F)(F)F)cc2)[C@@H](C(=O)NCCCc2cccc(O)c2)C1 [Example 716]
Response line: < 6.00

Prompt line: Please give the result for CCCc1ccc(CNC(=O)[C@H]2CN(C(=O)Nc3ccccc3OCc3ccccc3)CCN2S(=O)(=O)c2ccc(OC(F)(F)F)cc2)cc1 [Example 833] too.
Response line: < 6.00

Prompt line: Follow-up item: O=C(NCc1ccc(OC(F)F)cc1F)[C@H]1CN(c2nc3nc(C(F)(F)F)ncc3s2)CCN1S(=O)(=O)c1ccc(OC(F)(F)F)cc1 [Example 1044]
Response line: > 7.00

Prompt line: # iterate: CCC(F)(F)c1ccc(CNC(=O)[C@H]2CN(c3cnc4ncncc4n3)CCN2S(=O)(=O)c2ccc(OC(F)(F)F)cc2)cc1 [Example 707]
Response line: > 7.00

Prompt line: What do you get for O=C(NCc1ccc(OC(F)(F)F)cc1)[C@H]1CN(C(=O)Nc2nnc(Br)s2)CCN1S(=O)(=O)c1ccc(OC(F)(F)F)cc1 [Example 936] ?
Response line: < 6.00

Prompt line: CCC(F)(F)c1ccc(CNC(=O)[C@H]2CN(c3cnc4cncnc4n3)CCN2S(=O)(=O)c2ccc([C@H]3CC[C@H](CC(=O)O)CC3)cc2)cc1 [Example 744] ?
Response line: > 7.00

Prompt line: Next compound up: CCCCc1ccc(CNC(=O)[C@H]2CN(c3nc4cn[nH]c(=O)c4s3)CCN2S(=O)(=O)c2ccc(OC(F)(F)F)cc2)cc1 [Example 841]
Response line: > 7.00

Prompt line: Try the compound O=C(NCc1ccc(OC(F)(F)F)cc1)[C@H]1CN(c2nc3nc(C4(O)CC4)ncc3s2)CCN1S(=O)(=O)c1ccc(OC(F)(F)F)cc1 [Example 1080]
Response line: > 7.00

Prompt line: Now this one: O=C(NCc1ccc(OC(F)(F)F)cc1)[C@H]1CN(c2nn3ccc(=O)nc3s2)CCN1S(=O)(=O)c1ccc(OC(F)(F)F)cc1 [Example 977]
Response line: > 7.00

Prompt line: Queued: CCN(C)c1ccc(CNC(=O)[C@H]2CN(c3nc4nc(Cl)ncc4s3)CCN2S(=O)(=O)c2ccc(OC(F)(F)F)cc2)cc1 [Example 958]
Response line: > 7.00

Prompt line: Can you handle O=C(NCc1ccc(OC(F)F)cc1F)[C@H]1CN(c2nc3ncncc3s2)CCN1S(=O)(=O)c1ccc(OC(F)(F)F)cc1 [Example 998] next?
Response line: > 7.00

Prompt line: Next compound up: COc1ncc2sc(N3CCN(S(=O)(=O)c4ccc(OC(F)(F)F)cc4)[C@@H](C(=O)NCc4ccc(OC(F)(F)F)cc4)C3)nc2n1 [Example 929]
Response line: > 7.00

Prompt line: Please answer likewise for CCC(F)(F)c1ccc(CNC(=O)[C@H]2CN(C(=O)Cn3nnc(N)n3)CCN2S(=O)(=O)c2ccc(OC(F)(F)F)cc2)cc1 [Example 1096]
Response line: > 7.00

Prompt line: # iterate: CN(CC(=O)O)c1ccc(S(=O)(=O)N2CCN(c3cnc4cnccc4n3)C[C@@H]2C(=O)NCc2ccc(OC(F)(F)F)cc2)cc1 [Example 765]
Response line: > 7.00

Prompt line: Follow-up entry: CCC(F)(F)c1ccc(CNC(=O)[C@H]2CN(C(=O)CNc3cccnc3)CCN2S(=O)(=O)c2ccc(OC(F)(F)F)cc2)cc1 [Example 733]
Response line: 6.00 to 7.00

Prompt line: What do you have for CCCc1ccc(CNC(=O)[C@H]2CN(c3cnc4cncc(C(=O)O)c4n3)CCN2S(=O)(=O)c2ccc([N+](=O)[O-])cc2)cc1 [Example 843] ?
Response line: > 7.00

Prompt line: Next up: O=C(NCc1ccc(OC(F)(F)F)cc1)[C@H]1CN(c2nc3c(=O)[nH][nH]c(=O)c3s2)CCN1S(=O)(=O)c1ccc(OC(F)(F)F)cc1 [Example 803]
Response line: > 7.00
